# system-under-test: integrin CD11c/CD18 (Homo sapiens, UniProt P20702)
# Construct: expressed in transfected cells; host or cells: K562 (ATCC)
# Sequence (P20702 with tags, fused parts or gaps): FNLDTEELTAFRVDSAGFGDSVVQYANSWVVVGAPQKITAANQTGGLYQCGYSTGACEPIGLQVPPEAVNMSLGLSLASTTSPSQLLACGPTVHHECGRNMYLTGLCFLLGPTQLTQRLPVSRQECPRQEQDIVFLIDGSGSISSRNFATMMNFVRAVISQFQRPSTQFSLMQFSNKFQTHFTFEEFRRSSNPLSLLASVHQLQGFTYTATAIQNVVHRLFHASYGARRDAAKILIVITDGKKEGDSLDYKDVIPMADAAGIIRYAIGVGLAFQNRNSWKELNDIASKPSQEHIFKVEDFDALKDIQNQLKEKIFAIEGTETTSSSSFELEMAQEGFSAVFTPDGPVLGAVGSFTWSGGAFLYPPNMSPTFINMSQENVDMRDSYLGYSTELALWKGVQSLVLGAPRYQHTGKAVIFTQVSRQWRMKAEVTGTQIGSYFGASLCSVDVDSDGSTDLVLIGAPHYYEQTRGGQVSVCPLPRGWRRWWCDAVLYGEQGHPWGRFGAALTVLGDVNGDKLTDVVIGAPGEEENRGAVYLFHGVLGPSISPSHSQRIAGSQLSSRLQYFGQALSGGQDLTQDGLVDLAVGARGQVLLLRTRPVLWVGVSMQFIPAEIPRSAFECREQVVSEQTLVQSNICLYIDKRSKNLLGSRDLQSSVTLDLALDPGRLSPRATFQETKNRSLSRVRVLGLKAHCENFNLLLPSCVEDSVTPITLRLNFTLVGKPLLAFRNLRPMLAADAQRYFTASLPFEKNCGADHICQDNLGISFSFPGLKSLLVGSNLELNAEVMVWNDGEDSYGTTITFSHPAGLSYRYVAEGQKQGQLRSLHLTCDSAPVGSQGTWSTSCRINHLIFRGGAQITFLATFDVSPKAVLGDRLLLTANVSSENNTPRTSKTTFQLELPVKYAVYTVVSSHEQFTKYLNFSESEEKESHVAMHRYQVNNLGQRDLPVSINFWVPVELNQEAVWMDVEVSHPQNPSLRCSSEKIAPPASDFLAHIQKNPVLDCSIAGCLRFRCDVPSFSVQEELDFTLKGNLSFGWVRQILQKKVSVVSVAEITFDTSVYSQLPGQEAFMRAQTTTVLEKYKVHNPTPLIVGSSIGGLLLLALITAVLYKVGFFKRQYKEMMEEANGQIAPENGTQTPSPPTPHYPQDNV
# Sequence (P05107 23-769 partner): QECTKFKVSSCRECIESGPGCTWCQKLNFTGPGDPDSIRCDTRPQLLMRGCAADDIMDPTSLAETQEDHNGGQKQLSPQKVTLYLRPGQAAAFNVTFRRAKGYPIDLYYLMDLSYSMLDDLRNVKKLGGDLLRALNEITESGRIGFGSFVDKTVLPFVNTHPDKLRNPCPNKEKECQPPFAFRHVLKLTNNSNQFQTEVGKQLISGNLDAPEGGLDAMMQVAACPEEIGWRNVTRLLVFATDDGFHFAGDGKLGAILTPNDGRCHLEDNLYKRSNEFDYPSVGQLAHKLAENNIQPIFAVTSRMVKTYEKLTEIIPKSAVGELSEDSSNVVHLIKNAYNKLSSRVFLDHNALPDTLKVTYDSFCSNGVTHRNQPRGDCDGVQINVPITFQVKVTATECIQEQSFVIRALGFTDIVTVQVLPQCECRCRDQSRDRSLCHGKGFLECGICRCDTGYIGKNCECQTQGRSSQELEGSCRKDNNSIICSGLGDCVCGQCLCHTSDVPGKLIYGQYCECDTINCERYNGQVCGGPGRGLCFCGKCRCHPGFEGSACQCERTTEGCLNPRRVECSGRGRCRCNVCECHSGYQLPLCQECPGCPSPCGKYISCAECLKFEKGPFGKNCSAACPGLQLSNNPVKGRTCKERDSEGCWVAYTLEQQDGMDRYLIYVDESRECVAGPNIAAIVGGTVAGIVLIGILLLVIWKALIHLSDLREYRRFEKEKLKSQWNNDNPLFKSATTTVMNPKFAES
# test-details: HTS cell adhesion assay, K562 CD11c/CD18 cells on immobilized fibrinogen
# Format: cell-based
experimental-readout: EC50 (µM)

- compound: "CC1CCN(S(=O)(=O)c2ccc(NC(=O)Cn3nnc(-c4ccccc4)n3)cc2)CC1"
  experimental-readout: "EC50"
  units: "µM"
  observed: 5.01
- compound: "Nc1c(C(=O)Nc2nccs2)sc2nc(-c3cccs3)cc(C(F)(F)F)c12"
  experimental-readout: "EC50"
  units: "µM"
  observed: 4.06
- compound: "Cc1ccc(-c2nn3c(C)nnc3s2)cc1NC(=O)c1ccc(-c2cccc(Cl)c2)o1"
  experimental-readout: "EC50"
  units: "µM"
  observed: 2.45
- compound: "Cc1ccc(CCN2CC(C(=O)NCCCN3CCCCCC3)CC2=O)cc1 (stereo not shown)"
  experimental-readout: "EC50"
  units: "µM"
  observed: 1.35
- compound: "CC(=O)Nc1ccc(-c2nnc(SCC(=O)n3c4c(c5ccccc53)CCCC4)n2C)cc1"
  experimental-readout: "EC50"
  units: "µM"
  observed: 1.29
- compound: "O=C(Nc1nccs1)c1cccc(N2C(=O)c3cccc4c([N+](=O)[O-])ccc(c34)C2=O)c1"
  experimental-readout: "EC50"
  units: "µM"
  observed: 1.87

1 = O=C(CCN1C(=O)c2ccccc2C1=O)Nc1ccc(-c2nc3ccccc3o2)cc1
2 = CC(C)CNC(=O)c1c(N)n(/N=C/c2ccccn2)c2nc3ccccc3nc12
3 = Cc1cc(C)cc(OCC(=O)Nc2ccc(N3CCCC3)cc2)c1
Lookup: Descending sort on EC50 required. Respond with the label ranking, as requested.
Found: 1, 2, 3
(1: 7.21 µM, 2: 3.73 µM, 3: 2.28 µM)

A = CCOc1ccc(/C=c2\sc3nc(-c4ccco4)nn3c2=O)cc1OCC
B = COC(=O)c1ccc2c(c1)N(Cc1nc(-c3cccc(C)c3)oc1C)C(=O)C1CCCN21 (stereo not shown)
C = Cc1ccc2nsnc2c1NC(=O)c1ccc(-c2cc(Cl)ccc2Cl)o1
Lookup: Order the items by recorded EC50; the first position goes to the largest value. # answer = labels listed in requested order
Found: A, B, C
(A: 5.07 µM, B: 2.56 µM, C: 1.38 µM)

A = CCOc1ccc(NC(=O)c2ccc(CNc3c(NC4CCCCC4)c(=O)c3=O)cc2)cc1
B = COC(=O)c1[nH]c2ccc(C)cc2c1NC(=O)CN1CCCc2ccccc21
Lookup: From the recorded data, which exceeds the other in EC50: A or B ? # respond with the chosen item's label
Found: A
(A: 4.31 µM, B: 0.564 µM)

---

# system-under-test: mutant integrin CD11bE320A/CD18 (Homo sapiens, UniProt P11215, E336A)
# Construct: expressed in transfected cells; host or cells: K562 (ATCC)
# Sequence (P11215 17-1152 E336A): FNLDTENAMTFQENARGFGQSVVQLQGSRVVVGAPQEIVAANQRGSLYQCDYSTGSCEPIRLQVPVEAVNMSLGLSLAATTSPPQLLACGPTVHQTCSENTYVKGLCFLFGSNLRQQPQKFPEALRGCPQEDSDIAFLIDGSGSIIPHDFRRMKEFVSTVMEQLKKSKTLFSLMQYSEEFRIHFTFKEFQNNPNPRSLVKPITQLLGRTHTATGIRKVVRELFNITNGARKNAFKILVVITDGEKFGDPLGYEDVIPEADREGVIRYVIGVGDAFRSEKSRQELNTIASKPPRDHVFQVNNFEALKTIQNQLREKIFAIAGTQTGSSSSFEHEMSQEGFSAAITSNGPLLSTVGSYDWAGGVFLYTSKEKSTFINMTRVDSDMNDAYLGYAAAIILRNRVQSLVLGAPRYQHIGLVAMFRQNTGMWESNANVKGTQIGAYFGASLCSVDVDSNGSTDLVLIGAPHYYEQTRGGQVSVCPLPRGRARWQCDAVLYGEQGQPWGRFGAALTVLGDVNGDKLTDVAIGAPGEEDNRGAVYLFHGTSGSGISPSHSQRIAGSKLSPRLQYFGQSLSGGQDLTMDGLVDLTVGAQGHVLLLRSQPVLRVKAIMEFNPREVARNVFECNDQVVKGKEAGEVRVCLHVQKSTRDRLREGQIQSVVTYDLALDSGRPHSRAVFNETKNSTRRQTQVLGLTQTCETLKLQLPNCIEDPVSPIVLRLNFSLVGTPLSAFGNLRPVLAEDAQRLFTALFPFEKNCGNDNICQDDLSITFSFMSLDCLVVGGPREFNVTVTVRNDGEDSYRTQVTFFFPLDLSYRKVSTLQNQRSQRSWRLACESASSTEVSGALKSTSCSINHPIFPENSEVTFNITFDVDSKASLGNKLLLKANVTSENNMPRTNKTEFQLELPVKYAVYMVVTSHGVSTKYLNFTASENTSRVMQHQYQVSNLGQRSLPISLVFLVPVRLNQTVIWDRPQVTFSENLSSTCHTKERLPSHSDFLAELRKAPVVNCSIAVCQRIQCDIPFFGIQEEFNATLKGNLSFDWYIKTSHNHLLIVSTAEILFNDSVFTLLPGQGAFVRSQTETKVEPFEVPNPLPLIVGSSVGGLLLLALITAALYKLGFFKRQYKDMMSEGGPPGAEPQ
# Sequence (P05107 23-769 partner): as the sequence (P05107 23-769 partner) above
# test-details: HTS cell adhesion assay, K562 E320A cells on immobilized fibrinogen
# Type: cell-based
# protocol-conditions: Table 4, adhesion to fibrinogen, five point dose-response
pEC50: −log10 of the molar value.
experimental-readout: pEC50

- molecule: "O=C(N/N=C/c1ccc(-c2ccc(S(=O)(=O)Nc3ncccn3)cc2)o1)c1cc2ccccc2cc1O"
  experimental-readout: "pEC50"
  observed: 5.26

a = C=CCn1c(SCC(=O)c2[nH]c(C)c(C(=O)OC)c2C)nc2scc(-c3ccc(OC)c(OC)c3)c2c1=O
b = Cc1ccc(-c2nn3c(C)nnc3s2)cc1NC(=O)c1ccc(-c2cccc(Cl)c2)o1
c = O=C(Cn1c(=O)oc2cc(S(=O)(=O)N3CCCC3)ccc21)NC1CCCc2ccccc21 (stereo not drawn)
Lookup: Ascending by pEC50, please: list the molecules accordingly. Sort the labels as requested; that list is your answer.
Found: b, a, c

---

# system-under-test: mutant integrin CD11bE320A/CD18 (Homo sapiens, UniProt P11215, E336A)
# Construct: expressed in transfected cells; host or cells: K562 (ATCC)
# test-details: HTS cell adhesion assay, K562 E320A cells on immobilized fibrinogen
# Type: cell-based
# protocol-conditions: Table 3, adhesion to fibrinogen, five point dose-response
experimental-readout: EC50 (µM)

# annotated cases, reported EC50 shown
- molecule: "Cc1ccc2nc3sc(C(=O)Nc4ccc(N5CCOCC5)cc4)c(N)c3cc2c1"
  units: "µM"
  EC50: 10.8
- molecule: "O=C(ONc1ccc(N=NC(=O)c2ccccc2O)cc1)c1ccccc1"
  units: "µM"
  EC50: 5.42
- molecule: "CC(=O)c1ccc(NC(=O)CSc2ccc(-c3ccc4c(c3)OCO4)nn2)cc1"
  units: "µM"
  EC50: 10.7

P = CC(C)c1nnc(NC(=O)c2c(O)c3cccc4c3n(c2=O)CCC4)s1
Q = Cc1ccc(-n2c(=O)c(C#N)cc3c(=O)n4cccc(C)c4nc32)cc1
R = Cc1cc(C=C2C(=O)CCCC2=O)c(C)n1-c1ccccc1
S = CC(C)c1nc2sc3c(SCC(=O)NCc4ccco4)ncnc3c2c2c1CCC2
Lookup: Rank the 4 molecules: largest EC50 first, smallest last. Hello, could you send the labels back in the order asked? Thank you.
Found: R, P, Q, S

---

# system-under-test: mutant integrin CD11bE320A/CD18 (Homo sapiens, UniProt P11215, E336A)
# Construct: expressed in transfected cells; host or cells: K562 (ATCC)
# test-details: HTS cell adhesion assay, K562 E320A cells on immobilized fibrinogen
# Format: cell-based
# protocol-conditions: Table 3, adhesion to fibrinogen, five point dose-response
experimental-readout: EC50 (µM)

For orientation, consider the following solved cases.
- molecule: "NC(=S)N/N=C/c1coc2cc(Cl)ccc2c1=O [Compound 6879466]"
  EC50 / µM: 171
- molecule: "O=C(N/N=C\\c1ccc(-c2ccc([N+](=O)[O-])cc2)o1)c1ccc2c(c1)OCO2 [Compound 5497396]"
  EC50 / µM: 11.7
- molecule: "O=C(N/N=C\\C=C\\c1ccco1)c1cc(-c2ccc3ccccc3c2)[nH]n1 [Compound 6030986]"
  EC50 / µM: 8.1
- molecule: "COc1cccc2sc(Nc3nc(-c4cc5ccccc5oc4=O)cs3)nc12 [Compound 7109922]"
  EC50 / µM: 8.76
- molecule: "CC(C)CN(C(=O)COC(=O)c1cc2c(s1)CCC2)C1CCS(=O)(=O)C1 (centres unmarked) [Compound 2998734]"
  EC50 / µM: 8.02

A = CCOC(=O)N1CCC(NC(=O)c2cccc3c2C(=O)N(c2ccc(OC)cc2)C3)CC1 [Compound 5307705]
B = NC(=O)c1cc(-c2ccccc2)sc1NC(=O)Cc1ccc(S(=O)(=O)N2CCOCC2)s1 [Compound 2121076]
C = C=CCn1c(SCC(=O)c2ccc(CNC(C)=O)o2)nc2scc(C3CC3)c2c1=O [Compound 2569132]
Lookup: Sort by EC50, descending. List labels; respect the requested ordering.
Found: B, A, C

a = O=C(Nc1ccc(Br)cc1Cl)c1cnccn1 [Compound 1245695]
b = C=CCn1c(SCC(=O)Nc2sccc2C#N)nc2sc(C)c(C)c2c1=O [Compound 1564171]
c = O=C(Nc1ccc2oc(-c3ccccc3F)nc2c1)c1cncc(Br)c1 [Compound 1295289]
Lookup: Please list these molecules in decreasing order of EC50. # answer = labels listed in requested order
Found: b, a, c
(b: 14.8 µM, a: 8.47 µM, c: 3.62 µM)

P = Cc1ccc(-c2noc(C3CCCN(S(=O)(=O)c4ccc(S(=O)(=O)N(C)C)cc4)C3)n2)o1 (centres unmarked) [Compound 3226283]
Q = CCCCn1c(=O)[nH]c(=O)c2c1nc(-c1ccc(-c3ccccc3Br)o1)n2CCOC [Compound 3908086]
R = CCOC(=O)C(Cc1ccccc1)C(=O)Nc1ccc(NC(=O)C(Cc2ccccc2)C(=O)OCC)cc1 (centres unmarked) [Compound 2836867]
S = CCC(=O)Nc1ccc(C(=O)CSc2nnc(-c3ccccc3F)n2C2CC2)cc1 [Compound 2448744]
Lookup: Rank the 4 molecules: largest EC50 first, smallest last. Write the labels in rank order as requested.
Found: R, S, Q, P
(R: 121 µM, S: 21.8 µM, Q: 12.2 µM, P: 6.69 µM)

---

# system-under-test: integrin CD11c/CD18 (Homo sapiens)
# Construct: expressed in transfected cells; host or cells: K562 (ATCC)
# test-details: HTS cell adhesion assay, K562 CD11c/CD18 cells on immobilized fibrinogen
# Assay type: cell-based
experimental-readout: EC50 (nM)

- compound: "Cc1ccsc1/C=C/C1=Cc2c(sc(NC(=O)CSc3nnc(N)[nH]3)c2C#N)C(C)(C)C1 [Compound 2083967]"
  system-under-test: "integrin CD11c/CD18 (Homo sapiens)"
  EC50 [nM]: 2700
- compound: "Cc1ccc(/C=c2\\sc3nc(-c4ccccc4Br)nn3c2=O)o1 [Compound 1891182]"
  system-under-test: "integrin CD11c/CD18 (Homo sapiens)"
  EC50 [nM]: 5270

a = COc1ccccc1NC(=O)c1sc2ncn(Cc3ccc(C)cc3)c(=O)c2c1C [Compound 1078286]
b = Cc1ccc(-n2c(N)c(C(=O)Nc3c(C)n(C)n(-c4ccccc4)c3=O)c3nc4ccccc4nc32)cc1 [Compound 1949560]
c = CCCCCCCC(=O)Nc1ccc(C(=O)N/N=C/c2cccc([N+](=O)[O-])c2)cc1 [Compound 9774264]
d = COc1ccc2cc3cc(C(=O)Nc4ccc5c(c4)OCCO5)oc3nc2c1 [Compound 3241193]
Lookup: Order these by EC50, descending, and give the full ranking. Please respond with the labels ordered as the question requires.
Found: b, a, c, d
(b: 5530 nM, a: 2500 nM, c: 1030 nM, d: 691 nM)
